Measured values drawn from PubChem BioAssay (NCI) for this set.

- Test system: DU-145 prostate
- protocolNotes: NCI-60 one-dose screen, 48 h
- reportedConditions: 10 µM unless noted
The panel holds about 83,000 compounds, 20% with a hit somewhere; the sample as a whole holds those more often. Calls of active or inactive are those of the source. How the source made its calls: active means growth percent below 10; inactive means the rest.
Can you answer with just one of these options? active, inactive

CC(=O)OC1CC2CCC1(C)C2(C)C (stereo not given)	inactive
COc1ccc2c(c1OC)OCC(CN(C)C)C2=O (stereo not given)	inactive

Q. State the result this test recorded for O=C(Nc1ccc(Cl)c(Cl)c1)Nc1ccccc1O .
A. inactive

Q. Moving on to the next compound: CCCCCCCCC(=O)OCCCC(CCC(CCC1CCCO1)OC(=O)CCCCCCCC)OC(=O)CCCCCCCC (stereo not given)
A. inactive

Q. // repeat for COc1cc(/C=C/C(=O)CC(=O)/C=C/c2ccc(O)c(OC)c2)ccc1O and report
A. inactive

###

- Test system: LOX IMVI melanoma
- protocolNotes: NCI-60 one-dose screen, 48 h
- reportedConditions: 10 µM
Compounds without any hit were thinned out: in the full panel of roughly 83,000, 20% have a hit. The source made the active and inactive calls. Rule for the calls: active = growth percent below 10; inactive = the rest.
Response enum: active, inactive

Cc1cc(N/N=C/c2ccccn2)nc2ccccc12	active
O=C1CSC(=S)N1Cc1cccnc1	inactive
N#CCc1cccc2ccccc12	inactive
C1=C(c2ccccc2)c2ccccc2C1	inactive
CCc1cccc(CC)c1N1C(=O)C=CC1=O	inactive

Q. Lab log entry: CC1=CC(=O)C=CC1(C)C(Cl)(Cl)Cl (stereo not drawn) — outcome as called in the assay?
A. inactive

Q. Another: COc1cc(OC)c(/C=C/c2c3ccccc3cc[n+]2C)c(OC)c1
A. active

Q. Now the same for COC(=O)Nc1nc2ccc(C3(c4ccc(F)cc4)OCCO3)cc2[nH]1
A. inactive

Q. Repeat with O=[N+]([O-])c1ccc(Oc2ccccc2Cl)c([N+](=O)[O-])c1
A. inactive

###

- Test system: PC-3 prostate
- protocolNotes: NCI-60 one-dose screen, 48 h (100 = growth as untreated, 0 = no growth, -100 = all killed)
- reportedConditions: 10 µM unless noted
The panel holds about 83,000 compounds, 20% with a hit somewhere; the sample as a whole holds those more often.
In plain terms, low growth, meaning strictly below 90%, gives MET, and everything else gives NOT MET.

See these solved cases before continuing.
CCCCCCCCCCCCCCCCCC1=NCCCN1CCO	NOT MET
Cc1ccc(N2C(=O)C=CC2=O)cc1	NOT MET
CC(=O)c1c(O)c(C)c(O)c2c1OC1=CC(=O)C(C(C)=O)C(=O)C12C (stereo not drawn)	MET
NNc1ccc(Cl)cc1Cl	MET
COc1ccc2c(c1OC)OCC(CN(C)C)C2=O (stereo not drawn)	NOT MET

Q. Lab note: confirm whether the reported growth for this molecule is below 90%, equality not counting. molecule: Cc1nc([N+](=O)[O-])c(Sc2nncc(-c3ccccc3)n2)n1C
A. NOT MET

Q. Please give the result for O=C1/C(=C/c2ccccn2)CCc2ccccc21 too.
A. NOT MET

Q. Would you mind doing CCCCCCCCCCCCCCCc1ccc(C(=O)C[n+]2ccccc2)cc1 as well?
A. MET

Q. Again, but for CCCOC(=O)c1nc(N(CC2CCCCC2)C(=O)NC)sc1/N=C/c1ccccc1
A. MET

Q. Now consider C[C@@]1(CO)[C@H](O)CC[C@@]2(C)[C@H]1CC[C@H]1C[C@@H]3C[C@@]12CC[C@@]3(O)COC(=O)CN .
A. MET

Q. What do you have for O=S(=O)(O)c1cnccn1 ?
A. MET

Q. Okay, and Cc1cc2cccnc2c2ncccc12 ?
A. MET

Q. # iterate: O=C(CCl)N1c2ccccc2Sc2c1ccc1ccccc21
A. MET
